pIC50: −log10 of the molar value.
System: UniProt P49841 | Read-out: pIC50
Sequence (P49841 whole entry): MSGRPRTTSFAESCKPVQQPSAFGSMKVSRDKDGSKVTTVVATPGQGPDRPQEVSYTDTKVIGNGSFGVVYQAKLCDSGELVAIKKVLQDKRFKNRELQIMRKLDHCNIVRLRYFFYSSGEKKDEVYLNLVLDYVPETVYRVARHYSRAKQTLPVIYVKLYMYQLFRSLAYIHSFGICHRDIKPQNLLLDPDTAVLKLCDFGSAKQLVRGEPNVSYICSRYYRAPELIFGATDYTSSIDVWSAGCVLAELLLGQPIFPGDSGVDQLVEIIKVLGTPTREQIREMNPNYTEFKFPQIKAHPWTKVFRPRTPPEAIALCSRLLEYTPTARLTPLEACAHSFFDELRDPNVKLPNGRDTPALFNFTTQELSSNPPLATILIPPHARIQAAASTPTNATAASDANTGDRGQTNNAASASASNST
readout: pIC50

[a] O=C(/C=C/c1ccc(O)c(O)c1)O[C@H](Cc1ccc(O)c(O)c1)C(=O)O
[b] CC(C)=CCc1cc2c(cc1O)oc(=O)c1c3ccc(O)cc3oc21
Query :: Which of the two gives a bigger number for pIC50: a or b ? To answer, give the label that identifies your chosen option.
Result :: a
(a: 5.65, b: 5.37)

* * *

System: GSK-3α (Homo sapiens) | Read-out: pIC50
Sequence (P49840 2-483): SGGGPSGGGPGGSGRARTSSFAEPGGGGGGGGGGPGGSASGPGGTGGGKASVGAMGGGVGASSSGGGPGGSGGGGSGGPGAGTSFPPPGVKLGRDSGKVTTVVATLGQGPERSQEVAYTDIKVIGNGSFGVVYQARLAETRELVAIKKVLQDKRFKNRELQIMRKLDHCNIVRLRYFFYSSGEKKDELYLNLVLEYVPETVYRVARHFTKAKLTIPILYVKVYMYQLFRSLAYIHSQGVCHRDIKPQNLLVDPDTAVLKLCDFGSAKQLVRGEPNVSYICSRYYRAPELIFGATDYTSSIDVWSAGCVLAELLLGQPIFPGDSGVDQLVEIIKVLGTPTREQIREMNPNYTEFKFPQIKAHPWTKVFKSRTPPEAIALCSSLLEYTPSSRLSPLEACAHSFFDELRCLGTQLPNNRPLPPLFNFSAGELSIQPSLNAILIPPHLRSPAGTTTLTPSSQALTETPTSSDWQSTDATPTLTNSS
pIC50: −log10 of the molar value.
readout: pIC50

[a] CC(C)=CCc1cc2c(cc1O)oc(=O)c1c3ccc(O)cc3oc21
[b] O=C(/C=C/c1ccc(O)c(O)c1)O[C@H](Cc1ccc(O)c(O)c1)C(=O)O
Query :: Which of the two gives a bigger number for pIC50: a or b ? To answer, give the label that identifies your chosen option.
Result :: a
(a: 5.64, b: 5.29)

The measured values listed here are drawn from paper doi:10.1101/2024.04.22.590490v1.
